Entry source: patent US20190315854A1

koff values, listed per item
# testedTarget: T1, sIL-6R (soluble IL-6 receptor; SBH Sciences) (human, UniProt P08887 20-365)
# T1 construct: also called human IL-6R
# T1 sequence: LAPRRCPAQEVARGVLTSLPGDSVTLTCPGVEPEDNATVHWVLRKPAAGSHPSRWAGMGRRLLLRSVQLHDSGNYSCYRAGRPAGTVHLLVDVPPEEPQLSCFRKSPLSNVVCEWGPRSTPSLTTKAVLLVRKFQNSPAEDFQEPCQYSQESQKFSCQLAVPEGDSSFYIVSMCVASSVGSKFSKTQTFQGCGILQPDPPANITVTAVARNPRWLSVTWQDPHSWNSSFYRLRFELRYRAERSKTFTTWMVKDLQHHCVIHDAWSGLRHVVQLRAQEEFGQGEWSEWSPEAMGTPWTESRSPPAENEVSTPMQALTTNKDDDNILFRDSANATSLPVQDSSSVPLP
# assayNotes: SPR (BIAcore 3000), antibody on chip, sIL-6R analyte, 25 C
Just the number please, in s⁻¹, no unit attached.

Worked examples follow.
221# (antibody, human IgG1, kappa, V domains shown) VH: QVQLQESGPGLVRPSQTLSLTCTVSGYSITSDHAWSWVRQPPGRGLEWIGYISYSGMITYNPSLKSRVTMLRDTSKNQFSLRLSSVTAADTAVYYCARSLARTTAIDFWGQGSLVTVSS VL: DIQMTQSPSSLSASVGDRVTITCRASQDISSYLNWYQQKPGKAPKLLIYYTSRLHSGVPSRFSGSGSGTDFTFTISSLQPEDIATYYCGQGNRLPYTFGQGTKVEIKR : 9.01e-05
235# (antibody, human IgG1, kappa, V domains shown) VH: QVQLQESGPGLVRPSQTLSLTCTVSGYSITSDHAWSWVRQPPGRGLEWIGYISYSGMITYNPSLKSRVTMLRDTSKNQFSLRLSSVTAADTAVYYCARTLARMTAIDFWGQGSLVTVSS VL: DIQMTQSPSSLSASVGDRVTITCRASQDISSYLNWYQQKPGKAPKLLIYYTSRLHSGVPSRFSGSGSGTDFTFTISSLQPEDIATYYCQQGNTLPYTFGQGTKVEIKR : 3.81e-05

Please look at the following binder next.
Ask: Request the reported koff associated with 215# (antibody, human IgG1, kappa, V domains shown) VH: QVQLQESGPGLVRPSQTLSLTCTVSGYSITSDHAWSWVRQPPGRGLEWIGYISYSGMITYNPSLKSRVTMLRDTSKNQFSLRLSSVTAADTAVYYCARSLARMTAMDYWGQGSLVTVSS VL: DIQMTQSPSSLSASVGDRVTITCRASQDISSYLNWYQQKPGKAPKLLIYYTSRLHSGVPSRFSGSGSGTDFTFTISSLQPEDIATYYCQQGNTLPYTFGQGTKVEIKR
Result: 0.000161
